These data points were gathered from patent US5407942A.

Biological target: angiotensin II receptor (Bos taurus)
Construct: partially purified membrane fractions of bovine AGC using radioactive angiotensin II
Sequence (P25104 whole entry): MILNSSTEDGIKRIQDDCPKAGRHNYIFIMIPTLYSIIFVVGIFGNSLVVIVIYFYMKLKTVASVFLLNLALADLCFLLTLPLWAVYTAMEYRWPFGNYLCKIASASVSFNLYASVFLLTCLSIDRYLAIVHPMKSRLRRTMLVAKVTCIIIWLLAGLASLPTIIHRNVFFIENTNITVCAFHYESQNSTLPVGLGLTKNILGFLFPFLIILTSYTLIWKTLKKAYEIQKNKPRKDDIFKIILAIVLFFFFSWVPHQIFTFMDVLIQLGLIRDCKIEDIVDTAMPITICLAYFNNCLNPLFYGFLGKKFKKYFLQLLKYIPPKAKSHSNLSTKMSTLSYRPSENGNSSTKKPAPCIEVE
Test: Interaction with the angiotensin II receptor in membrane fractions of the adrenal gland cortex (bovine), 3H-angiotensin II binding
Settings: 3H-angiotensin II 3-5 nM, 60 min at room temperature, read-out: Ki, specific binding of 3H-angiotensin II
pKi: −log10 of the molar value.
Entries and their measured pKi follow.
reportedProperty: pKi

smilesnotation=O=c1c2ccccc2cc(-c2ccccc2)n1Cc1ccc(-c2ccccc2-c2nnn[nH]2)cc1 numericresult=5.70
smilesnotation=CCCCc1cc2ccccc2c(=O)n1Cc1ccc(-c2ccccc2-c2nnn[nH]2)cc1 numericresult=7.38
smilesnotation=CCc1cc2ccccc2c(=O)n1Cc1ccc(-c2ccccc2-c2nnn[nH]2)cc1 numericresult=6.12
